Documented solubility at 2 h across a set of compounds
Assay: Solubility testing of peptides at different pH
Type: physicochemical
Conditions: 50 mM phosphate buffer pH 6.5; target concentration 1 mg/ml; 2 hours agitation; read-out: Solubility Buffer pH 6.5
Starred links: 1 amine or outer side, 2 acyl side, 3 side chain; linkers in the order of their positions; H or OH if unused. Positions of bridges follow the written chain, without caps; N, C: chain ends. Non-standard residues stand in square brackets, D forms with d. Residues, ends and D or L forms follow the SMILES beside them. *: point of attachment. Trp(7-Me) = Cc1cccc2c(C[C@H](N)C(=O)O)c[nH]c12; 2Nal = N[C@@H](Cc1ccc2ccccc2c1)C(=O)O; αMeL = CC(C)C[C@](C)(N)C(=O)O; Suc = O=C(CCC(=O)[*:2])[*:1]; Me2NCH2CH2 = CN(C)CC*
Just the number please, in mg/mL, no unit attached.

INSERT INTO assay_data (compound, unit_annotation, recorded_number) VALUES
  ('COc1ccc(C[C@@H]2NC(=O)[C@@H]3CSSC[C@H](NC(=O)CCC(=O)NCCCC[C@@H](C(=O)N[C@@H](CC(N)=O)C(=O)N[C@@H](CC(N)=O)C(N)=O)NC(=O)C(C)(C)NC(=O)[C@H](Cc4ccc5ccccc5c4)NC2=O)C(=O)N[C@@H](CC(N)=O)C(=O)N[C@@H]([C@@H](C)O)C(=O)N[C@@H](Cc2c[nH]c4ccccc24)C(=O)N[C@@H](CCC(N)=O)C(=O)N3)cc1 [compound 11]', 'mg/mL', 0.1);

Please turn your attention to the following entry.
[in] Please supply the value of reported solubility at 2 h for the item CC(=O)NCCCC[C@@H]1NC(=O)[C@H](Cc2c[nH]c3c(C)cccc23)NC(=O)[C@H]([C@@H](C)O)NC(=O)[C@H](CC(N)=O)NC(=O)[C@@H]2CSSC[C@H](NC1=O)C(=O)N[C@@H](Cc1ccc(OCCN(C)C)cc1)C(=O)N[C@@H](Cc1ccc3ccccc3c1)C(=O)N[C@@](C)(CC(C)C)C(=O)N[C@H](C(=O)N[C@@H](CC(N)=O)C(=O)N[C@@H](Cc1c[nH]cn1)C(N)=O)CCCCNC(=O)CCC(=O)N2 [compound 23] (CNT[Trp(7-Me)]K(Ac)CY(Me2NCH2CH2)[2Nal][αMeL]KNH-NH2; disulfide 1-6; linker N-10 via Suc)
[out] 0.98
